Target or test system: soluble HLA-A2.01 molecules
Measurement notes: competition with 125I-F10V for HLA-A2.01, ratio peptide/125I-F10V 25/1
Non-standard residues stand in square brackets, D forms with d. No end group written: not given here. Abu = CC[C@H](N)C(=O)O
Assay endpoint: percentage inhibition of the binding of 125I-F10V, ratio 25/1

>>> result("RIAE[Abu]ILGM [R9M-5α-but]")
"49%"
>>> result("RIAESILGM (modifications not checked) [R9M-5S]")
"75%"
>>> result("RIAEAILGM (modifications not checked) [R9M-5A]")
"72%"
>>> result("YIAE[Abu]ILGM [Y9M-5α-but]")
"26%"
